# tested_on: androgen receptor (AR) (Homo sapiens, UniProt P10275, T878A)
# Construct: host or cells: LNCaP human prostate cancer cells
# Sequence (P10275 1-920 T878A): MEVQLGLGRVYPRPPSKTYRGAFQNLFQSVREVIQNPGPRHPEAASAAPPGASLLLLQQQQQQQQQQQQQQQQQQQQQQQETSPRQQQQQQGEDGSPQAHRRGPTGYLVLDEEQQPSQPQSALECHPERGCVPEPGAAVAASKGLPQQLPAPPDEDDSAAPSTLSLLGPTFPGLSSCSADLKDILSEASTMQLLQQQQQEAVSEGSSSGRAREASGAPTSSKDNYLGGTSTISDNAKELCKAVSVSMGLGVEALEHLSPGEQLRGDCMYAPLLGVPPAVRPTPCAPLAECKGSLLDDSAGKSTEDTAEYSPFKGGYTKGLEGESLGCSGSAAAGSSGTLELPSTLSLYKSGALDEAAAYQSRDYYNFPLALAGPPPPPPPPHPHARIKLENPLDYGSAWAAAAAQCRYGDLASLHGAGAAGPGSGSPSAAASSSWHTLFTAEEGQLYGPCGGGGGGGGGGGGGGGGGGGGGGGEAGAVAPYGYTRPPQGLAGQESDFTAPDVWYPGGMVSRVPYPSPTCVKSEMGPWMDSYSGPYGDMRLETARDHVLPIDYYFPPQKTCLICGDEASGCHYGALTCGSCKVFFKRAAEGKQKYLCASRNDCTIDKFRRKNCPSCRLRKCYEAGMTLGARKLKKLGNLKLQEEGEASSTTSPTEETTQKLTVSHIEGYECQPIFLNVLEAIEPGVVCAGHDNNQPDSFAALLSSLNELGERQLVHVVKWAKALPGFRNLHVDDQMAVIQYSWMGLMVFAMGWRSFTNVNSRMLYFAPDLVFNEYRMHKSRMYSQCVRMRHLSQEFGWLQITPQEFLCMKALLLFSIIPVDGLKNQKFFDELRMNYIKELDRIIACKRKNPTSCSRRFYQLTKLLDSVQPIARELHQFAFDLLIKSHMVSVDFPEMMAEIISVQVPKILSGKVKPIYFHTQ
# assay_summary: Degradation activity on androgen receptor in LNCaP cells (AR ELISA)
# Type: cell-based
# condition_context: 0.1 nM R1881, 24 hours, read-out: Max (maximum AR degradation rate)
result_type: Dmax (%)
Response body: numeric value in %, unit text excluded.

Recorded results for 2 compounds are shown here.
C[C@H]1CC2(CCN(c3ccc(C(=O)N4CCC(CN5CCN(c6ccc(C(=O)NC7CCC(=O)NC7=O)nc6)CC5)CC4)cc3)CC2)CN1c1ccc(C#N)c(Cl)c1 (stereo partly shown) [Example 4] = 92
C[C@H]1CC2(CCN(c3ccc(C(=O)N4CCC(CN5CCN(c6cccc(NC7CCC(=O)NC7=O)c6)CC5)CC4)nc3)CC2)CN1c1ccc(C#N)c(Cl)c1 (stereo partly shown) [Example 12] = 97

Supply reported Dmax belonging to this compound: C[C@H]1CC2(CCN(c3ccc(C(=O)N4CCC(N5CC(N6CCN(c7ccc(N8CCC(=O)NC8=O)cc7)CC6)C5)CC4)cc3)CC2)CN1c1ccc(C#N)c(Cl)c1 [Example 7]
93

Answer with the recorded Dmax of C[C@H]1CC2(CCN(c3ccc(C(=O)N4CC(CN5CCC(c6cccc(NC7CCC(=O)NC7=O)c6)CC5)C4)nn3)CC2)CN1c1ccc(C#N)c(Cl)c1 (stereo partly shown) [Example 21] only.
94
